- Test system: plasma protein
- experiment-notes: Determination of plasma protein binding (equilibrium dialysis, RED)
- Type: in vitro ADME
- study-conditions: 4 hours at 37° C.
Recorded Exposure (% rPPB), bound drug fraction to plasma protein by entry
Field format: number, assumed %, no unit text.

Examples with their reported Exposure (% rPPB), bound drug fraction to plasma protein follow.
compound | readout-units | result
C[C@@H]1c2nnc(-c3nc(C(F)F)ns3)n2CCN1C(=O)c1ccc(F)cc1 [Compound 42] | % | 16
CCC[C@@H]1c2nnc(-c3nc(C)ns3)n2CCN1C(=O)c1ccc(F)cc1 [Compound 24] | % | 48
C[C@@H]1c2nnc(-c3nc(C(C)(F)F)no3)n2CCN1C(=O)c1ccc(F)cc1 [Compound 43] | % | 47

Shift focus to the following entry.
Enquiry: Reported Exposure (% rPPB), bound drug fraction to plasma protein for plasma protein, given Cc1nsc(-c2nnc3n2CCN(C(=O)c2cccc(Cl)c2)[C@@H]3C)n1 [Compound 16] ?
Return: 36

====

Recorded Exposure (% rPPB), bound drug fraction to plasma protein for the following compounds
- Tested on: plasma protein
- experiment-notes: Determination of plasma protein binding (equilibrium dialysis, RED)
- Type: in vitro ADME
- study-conditions: 4 hours at 37° C.
Response body: numeric value in %, unit text excluded.

Reference set (5 entries):
compound | target-system | result
CCc1nsc(-c2nnc3n2CCN(C(=O)c2ccc(F)cc2)[C@@H]3C)n1 | plasma protein | 47
Cc1ccc(C(=O)N2CCn3c(-c4nc(C)ns4)nnc3[C@H]2C)cc1 | plasma protein | 51
Cc1nsc(-c2nnc3n2CCN(C(=O)c2ccc(F)c(F)c2F)C3C)n1 (racemic) | plasma protein | 29
CCc1noc(-c2nnc3n2CCN(C(=O)c2ccc(F)cc2)[C@@H]3C)n1 | plasma protein | 37
Cc1nsc(-c2nnc3n2CCN(C(=O)c2cc(F)cc(F)c2)[C@@H]3C)n1 | plasma protein | 24

Enquiry: Look at this compound and give its reported Exposure (% rPPB), bound drug fraction to plasma protein. Cc1nsc(-c2nnc3n2CCN(C(=O)c2ccc(Cl)c(F)c2)[C@@H]3C)n1
Return: 40

Enquiry: # lookup: Exposure (% rPPB), bound drug fraction to plasma protein of Cc1nsc(-c2nnc3n2CCN(C(=O)c2ccc(F)c(F)c2)C3C)n1 (racemic)
Return: 25

Enquiry: GET /values?readout=Exposure (% rPPB), bound drug fraction to plasma protein&item= Cc1nsc(-c2nnc3n2CCN(C(=O)c2ccc(F)c(F)c2)[C@@H]3C)n1
Return: 22

====

The molecules below have reported Ki for human NK-2 receptor (Homo sapiens (Human), UniProt P21452).

molecule | Ki
Cc1nsc(-c2nnc3n2CCN(C(=O)c2ccc(Cl)cc2)C3C)n1 (racemic) | > 30 µM
Cc1nsc(-c2nnc3n2CCN(C(=O)c2ccc(C#N)cc2)[C@@H]3C)n1 | > 30 µM
CC(F)c1noc(-c2nnc3n2CCN(C(=O)c2ccc(F)cc2)[C@@H]3C)n1 (single isomer, unassigned) [Compound 45-1] | > 30 µM
Cc1nsc(-c2nnc3n2CCN(C(=O)c2ccc(Cl)c(F)c2)[C@@H]3C)n1 | 23 µM
Cc1nsc(-c2nnc3n2CCN(C(=O)c2ccc(F)c(Cl)c2)[C@@H]3C)n1 | 25 µM
Cc1nsc(-c2nnc3n2CCN(C(=O)c2ccc(F)cc2)C3C)n1 (racemic) | > 30 µM

Enquiry: # get_value(readout= Ki, system= human NK-2 receptor (Homo sapiens (Human), UniProt P21452)) for Cc1noc(-c2nnc3n2CCN(C(=O)c2ccc(F)cc2)[C@@H]3C)n1
Return: > 30 µM

Enquiry: // lookup Ki | system=human NK-2 receptor (Homo sapiens (Human), UniProt P21452) | key= Cc1nsc(-c2nnc3n2CCN(C(=O)c2ccc(F)cc2)[C@@H]3C)n1
Return: > 30 µM

Enquiry: Item: Cc1nsc(-c2nnc3n2CCN(C(=O)c2ccccc2)[C@@H]3C)n1 Test system: human NK-2 receptor (Homo sapiens (Human), UniProt P21452) Read-out: Ki Value: ?
Return: > 30 µM

Enquiry: // map CCc1nsc(-c2nnc3n2CCN(C(=O)c2ccc(F)cc2)C3C)n1 (racemic) to recorded Ki (system: human NK-2 receptor (Homo sapiens (Human), UniProt P21452))
Sequence (P21452 whole entry): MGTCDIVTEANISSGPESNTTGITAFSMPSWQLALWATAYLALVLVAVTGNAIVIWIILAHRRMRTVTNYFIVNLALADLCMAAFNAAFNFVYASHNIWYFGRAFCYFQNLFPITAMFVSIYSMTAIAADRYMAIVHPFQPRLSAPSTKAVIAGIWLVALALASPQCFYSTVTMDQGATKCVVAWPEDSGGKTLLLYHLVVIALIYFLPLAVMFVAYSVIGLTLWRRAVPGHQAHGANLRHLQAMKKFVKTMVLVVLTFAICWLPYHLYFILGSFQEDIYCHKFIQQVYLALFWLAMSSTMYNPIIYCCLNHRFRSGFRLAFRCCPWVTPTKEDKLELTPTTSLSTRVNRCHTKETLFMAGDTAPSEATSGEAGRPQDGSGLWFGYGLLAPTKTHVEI
Return: > 30 µM

Enquiry: Param readout = Ki; param system = human NK-2 receptor (Homo sapiens (Human), UniProt P21452); param query = Cc1nsc(-c2nnc3n2CCN(C(=O)c2ccccc2C)[C@@H]3C)n1 ; response: value
Return: > 30 µM

Enquiry: Provide the documented Ki with human NK-2 receptor (Homo sapiens (Human), UniProt P21452) as the system for CC(F)c1noc(-c2nnc3n2CCN(C(=O)c2ccc(F)cc2)[C@@H]3C)n1 (single isomer, unassigned) [Compound 45-2]
Return: > 30 µM

====

- target-system: human NK-3 receptor (Homo sapiens (Human), UniProt P29371)
- Sequence (P29371 whole entry): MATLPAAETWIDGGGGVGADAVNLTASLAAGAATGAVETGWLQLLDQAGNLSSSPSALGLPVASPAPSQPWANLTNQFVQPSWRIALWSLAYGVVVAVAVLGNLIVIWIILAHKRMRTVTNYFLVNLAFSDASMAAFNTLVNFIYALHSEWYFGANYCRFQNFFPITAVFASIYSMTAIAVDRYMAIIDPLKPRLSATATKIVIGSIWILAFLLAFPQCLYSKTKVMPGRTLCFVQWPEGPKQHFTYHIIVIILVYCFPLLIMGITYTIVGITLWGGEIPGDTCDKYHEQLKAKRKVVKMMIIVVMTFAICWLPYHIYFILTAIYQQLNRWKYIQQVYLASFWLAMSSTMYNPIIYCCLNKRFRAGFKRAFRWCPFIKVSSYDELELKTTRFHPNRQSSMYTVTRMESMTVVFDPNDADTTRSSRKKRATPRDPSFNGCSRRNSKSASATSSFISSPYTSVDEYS
- experiment-notes: Aequorin functional assay with human NK-3 receptor (antagonist testing vs NKA)
- Format: cell-based
- study-conditions: CHO cells, NKA at EC80 (3 nM); read-out: Functional assay: Aequorin assay with human NK-3 receptor hNK-3-AEQ (antagonist IC50)
measure: pIC50
Worth noting: pIC50 values are minus log10 of concentrations stated in mol/L.

Solved cases (10 shown):
compound | pIC50
Cc1nsc(-c2nnc3n2CCN(C(=O)c2ccc(F)cc2)C3C)n1 (racemic) | 7.24
CC(F)c1noc(-c2nnc3n2CCN(C(=O)c2ccc(F)cc2)[C@@H]3C)n1 (stereo partly drawn) [Compound 45] | 6.61
CCc1nsc(-c2nnc3n2CCN(C(=O)c2ccc(F)cc2)C3C)n1 (racemic) | 7.49
Cc1nsc(-c2nnc3n2CCN(C(=O)c2ccc(Cl)cc2)[C@@H]3C)n1 | 7.49
Cc1nsc(-c2nnc3n2CCN(C(=O)c2cc(F)cc(F)c2)[C@@H]3C)n1 | 7.30
Cc1nsc(-c2nnc3n2CCN(C(=O)c2ccc(F)cc2)[C@@H]3CCO)n1 | 7.14
CCC[C@@H]1c2nnc(-c3nc(C)ns3)n2CCN1C(=O)c1ccc(F)cc1 | 6.92
Cc1nsc(-c2nnc3n2CCN(C(=O)c2ccc(F)c(F)c2)[C@@H]3C)n1 | 7.68
Cc1nsc(-c2nnc3n2CCN(C(=O)c2ccc(Cl)c(Cl)c2)C3C)n1 (racemic) | 7.47
Cc1nsc(-c2nnc3n2CCN(C(=O)c2ccccc2C)[C@@H]3C)n1 | 7.13

Enquiry: Give the measured pIC50 of CC(F)c1noc(-c2nnc3n2CCN(C(=O)c2ccc(F)cc2)[C@@H]3C)n1 (single isomer, unassigned) [Compound 45-1] .
Return: 6.55

Enquiry: Entry Cc1nsc(-c2nnc3n2CCN(C(=O)c2ccc(Cl)c(F)c2)[C@@H]3C)n1 has what pIC50?
Return: 7.72

Enquiry: For the compound shown here, Cc1nsc(-c2nnc3n2CCN(C(=O)c2ccc(F)c(F)c2)C3C)n1 (racemic) , give the reported pIC50.
Return: 7.36

Enquiry: Record request: pIC50 value, item Cc1nsc(-c2nnc3n2CCN(C(=O)c2ccc(C#N)cc2)[C@@H]3C)n1
Return: 6.77

Enquiry: Name the reported pIC50 value associated with the compound Cc1nsc(-c2nnc3n2CCN(C(=O)c2ccc(F)c(F)c2F)C3C)n1 (racemic)
Return: 6.92

Enquiry: May I ask what pIC50 has been recorded for CCc1noc(-c2nnc3n2CCN(C(=O)c2ccc(F)cc2)[C@@H]3C)n1 ?
Return: 7.36

====

Catalogue of IC50 values
- target-system: human NK-3 receptor (Homo sapiens (Human), UniProt P29371)
- experiment-notes: Aequorin functional assay with human NK-3 receptor (antagonist testing vs NKA)
- study-conditions: CHO cells, NKA at EC80 (3 nM); read-out: Functional assay: Aequorin assay with human NK-3 receptor hNK-3-AEQ (antagonist IC50)
Dear colleague, please return just the value in nM, with no unit written.

Observe how each entry below is paired with its result.
compound | result
Cc1nsc(-c2nnc3n2CCN(C(=O)c2ccc(Cl)c(Cl)c2)[C@@H]3C)n1 [Compound 1] | 16
Cc1nsc(-c2nnc3n2CCN(C(=O)c2ccc(F)c(Cl)c2)C3C)n1 (racemic) [Compound 35] | 54
Cc1nsc(-c2nnc3n2CCN(C(=O)c2ccc(C(F)(F)F)cc2)[C@@H]3C)n1 [Compound 21] | 150
Cc1nsc(-c2nnc3n2CCN(C(=O)c2ccc(F)cc2)[C@@H]3C)n1 [Compound 5] | 18
CCc1noc(-c2nnc3n2CCN(C(=O)c2ccc(-c4cccs4)cc2)[C@@H]3C)n1 [Compound 30] | 5

Enquiry: Request - read-out IC50 | tested on human NK-3 receptor (Homo sapiens (Human), UniProt P29371) | compound Cc1noc(-c2nnc3n2CCN(C(=O)c2ccc(F)cc2)[C@@H]3C)n1 [Compound 28]
Return: 160

Enquiry: Give recorded IC50 with human NK-3 receptor (Homo sapiens (Human), UniProt P29371) for the following compound: CCc1nsc(-c2nnc3n2CCN(C(=O)c2ccc(F)cc2)[C@@H]3C)n1 [Compound 2]
Return: 12

Enquiry: Which measured IC50 belongs to Cc1nsc(-c2nnc3n2CCN(C(=O)c2cc(F)c(F)c(F)c2F)[C@@H]3C)n1 [Compound 10] , tested on human NK-3 receptor (Homo sapiens (Human), UniProt P29371)?
Return: 56
